- Tested on: U2OS
- assay_details: Multiplex assay against U2OS
- Type: toxicity, cell-based
- run_parameters: human, 12 h, 10 µM, compound concentration 10 uM, replicate 2
reported_property: Population Healthy Nuclei (%)

compound="CSc1ccccc1N1CCN(CCCCCC(=O)NC2CCCc3ccccc32)CC1.Cl (stereo unspecified)" target_of_assay=U2OS value_unit=% assay_value=55
compound=CCOc1c2c(c(OCC)c3ncccc13)CN(c1ccc(CS(=O)(=O)NC(=O)Cc3ccccc3OC)cc1C)C2=O target_of_assay=U2OS value_unit=% assay_value=75
compound=O=C(O)Cc1ccccc1Nc1c(Cl)cccc1Cl target_of_assay=U2OS value_unit=% assay_value=76
compound=CCCn1c(=O)c2[nH]c(C3CCCC3)nc2n(CCC)c1=O target_of_assay=U2OS value_unit=% assay_value=69
compound="O=S(=O)(c1ccccc1)c1cnc2c(N3CCNCC3)cccc2c1 [INTEPIRDINE]" target_of_assay=U2OS value_unit=% assay_value=79
compound=CC1(COc2ccc3c(c2)ncn3-c2ccc3cccc(N4CCC(N)CC4)c3n2)COC1 target_of_assay=U2OS value_unit=% assay_value=21
compound=O=C(NCC(=O)N1CC[C@H](N[C@H]2CC[C@@](O)(c3ccc(-c4ncccn4)cn3)CC2)C1)c1cccc(C(F)(F)F)c1 target_of_assay=U2OS value_unit=% assay_value=66
compound=CN(C)CCCc1cc(C(=O)Nc2ccc(-c3ccncc3)cc2)ccc1O.Cl.Cl target_of_assay=U2OS value_unit=% assay_value=63
compound=C[C@@H]1C[C@H]2[C@@H]3CCC4=CC(=O)C=C[C@]4(C)[C@@]3(F)[C@@H](O)C[C@]2(C)[C@@]1(O)C(=O)CO target_of_assay=U2OS value_unit=% assay_value=76
compound=COc1cc(NC(=O)CCN2CCC(OC(=O)Nc3ccccc3-c3ccccc3)CC2)c(Cl)cc1CNC[C@H](O)c1ccc(O)c2[nH]c(=O)ccc12 target_of_assay=U2OS value_unit=% assay_value=59
compound="CN1CCN2c3ncccc3Cc3ccccc3C2C1 (stereo unspecified)" target_of_assay=U2OS value_unit=% assay_value=82
compound="Cl.Clc1ccc2nsnc2c1NC1=NCCN1 [TIZANIDINE HYDROCHLORIDE]" target_of_assay=U2OS value_unit=% assay_value=66
compound=CC(C)(C)c1ccc(S(=O)(=O)Nc2ccc(Cl)cc2C(=O)c2cc[n+]([O-])cc2)cc1 target_of_assay=U2OS value_unit=% assay_value=77
compound=CC(=O)NCCc1c(Cc2ccccc2)[nH]c2ccccc12 target_of_assay=U2OS value_unit=% assay_value=78
compound=CC[C@H]1OC(=O)[C@H](C)[C@@H](O[C@H]2C[C@@](C)(OC)[C@@H](O)[C@H](C)O2)[C@H](C)[C@@H](O[C@@H]2O[C@H](C)C[C@H](N(C)C)[C@H]2O)[C@@]2(C)CC(C)=C(O2)[C@H](C)[C@@H](O)[C@]1(C)O target_of_assay=U2OS value_unit=% assay_value=47
compound="CNC[C@H](O)c1ccc(O)c(O)c1 [EPINEPHRINE]" target_of_assay=U2OS value_unit=% assay_value=50
compound=C[C@H](NC(=O)c1c(C(F)F)nn(C)c1Oc1cccc(C(F)(F)F)c1)c1ccc(C(=O)O)cc1 target_of_assay=U2OS value_unit=% assay_value=77
compound=O=C(NCCO)c1cccc(-c2cc(Nc3ccc(OC(F)(F)F)cc3)ncn2)c1 target_of_assay=U2OS value_unit=% assay_value=68
compound=Cc1nc2ccc(Oc3ccc(F)cc3)cc2c(=O)n1C[C@H]1CCCN(C(C)C)C1.Cl target_of_assay=U2OS value_unit=% assay_value=58
compound=COc1cc(C(=O)N(CCCc2ccccc2)Cc2ccc(CC(=O)O)cc2)cc(OC)c1C target_of_assay=U2OS value_unit=% assay_value=79
compound=N[C@@]1(C(=O)O)CO[C@H]2[C@H](C(=O)O)[C@H]21 target_of_assay=U2OS value_unit=% assay_value=77
